assay.system: 3',5'-cyclic-AMP phosphodiesterase 4C (Homo sapiens, UniProt Q08493)
Sequence (Q08493 whole entry): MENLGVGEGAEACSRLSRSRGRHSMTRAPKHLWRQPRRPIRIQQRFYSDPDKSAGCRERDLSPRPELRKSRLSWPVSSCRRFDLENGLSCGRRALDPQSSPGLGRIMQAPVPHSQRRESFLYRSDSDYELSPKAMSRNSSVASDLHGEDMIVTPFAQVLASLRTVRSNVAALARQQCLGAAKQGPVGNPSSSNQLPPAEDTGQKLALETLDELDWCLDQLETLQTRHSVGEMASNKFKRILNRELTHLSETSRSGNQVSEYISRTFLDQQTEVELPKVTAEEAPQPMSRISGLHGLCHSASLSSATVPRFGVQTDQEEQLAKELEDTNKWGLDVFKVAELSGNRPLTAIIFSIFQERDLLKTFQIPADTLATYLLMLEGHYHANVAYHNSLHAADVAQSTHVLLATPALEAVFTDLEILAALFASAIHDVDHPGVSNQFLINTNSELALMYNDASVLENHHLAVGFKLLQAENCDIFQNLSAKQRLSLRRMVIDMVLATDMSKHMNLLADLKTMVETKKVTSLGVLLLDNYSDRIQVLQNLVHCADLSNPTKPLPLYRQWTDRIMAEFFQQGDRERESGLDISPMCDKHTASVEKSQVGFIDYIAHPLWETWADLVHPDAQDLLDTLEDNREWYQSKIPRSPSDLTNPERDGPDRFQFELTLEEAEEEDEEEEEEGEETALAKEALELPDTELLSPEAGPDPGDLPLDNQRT
experiment.description: Inhibition of human Phosphodiesterase 4C from peripheral blood mononuclear cells
pIC50: −log10 of the molar value.

| input.smiles | pIC50 |
| --- | --- |
| O=C(O)c1ccc(-c2cc3cccnc3c(-c3ccc4nonc4c3)n2)cc1 | 5.91 |

###

assay.system: 3',5'-cyclic-AMP phosphodiesterase 4A (Homo sapiens)
Sequence (P27815 whole entry): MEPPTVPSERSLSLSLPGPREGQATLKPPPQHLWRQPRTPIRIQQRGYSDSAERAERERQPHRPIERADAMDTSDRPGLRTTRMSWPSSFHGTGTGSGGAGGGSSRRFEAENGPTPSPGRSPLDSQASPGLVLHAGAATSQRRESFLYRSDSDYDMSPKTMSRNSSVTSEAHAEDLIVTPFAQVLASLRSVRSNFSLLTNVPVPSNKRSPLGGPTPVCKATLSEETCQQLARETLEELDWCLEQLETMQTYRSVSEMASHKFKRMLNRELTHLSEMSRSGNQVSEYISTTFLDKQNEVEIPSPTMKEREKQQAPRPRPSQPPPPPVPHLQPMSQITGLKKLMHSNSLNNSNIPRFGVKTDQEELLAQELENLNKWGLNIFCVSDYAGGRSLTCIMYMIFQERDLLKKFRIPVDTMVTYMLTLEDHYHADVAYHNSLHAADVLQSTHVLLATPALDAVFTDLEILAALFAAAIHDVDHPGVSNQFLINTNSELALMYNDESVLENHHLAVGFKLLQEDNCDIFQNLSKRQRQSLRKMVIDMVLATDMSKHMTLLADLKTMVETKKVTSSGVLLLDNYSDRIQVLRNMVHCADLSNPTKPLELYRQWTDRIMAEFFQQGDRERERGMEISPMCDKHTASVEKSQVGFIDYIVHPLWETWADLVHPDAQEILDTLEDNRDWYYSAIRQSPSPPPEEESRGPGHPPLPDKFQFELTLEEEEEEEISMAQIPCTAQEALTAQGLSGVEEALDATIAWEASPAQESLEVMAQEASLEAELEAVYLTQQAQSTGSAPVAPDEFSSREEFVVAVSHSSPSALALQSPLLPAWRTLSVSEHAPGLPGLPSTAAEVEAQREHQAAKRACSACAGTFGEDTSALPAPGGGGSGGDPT
experiment.description: Inhibition of human Phosphodiesterase 4A from peripheral blood mononuclear cells
test.readout: IC50

| input.smiles | assay.system | observed.measurement |
| --- | --- | --- |
| O=C(O)c1ccc(-c2cc3cccnc3c(-c3ccc4nonc4c3)n2)cc1 | 3',5'-cyclic-AMP phosphodiesterase 4A (Homo sapiens) | 602 nM |

The reported measurements were obtained from ChEMBL document CHEMBL1135378.
